// IC50 collected for Dipeptidyl peptidase 4 (Homo sapiens)

// solved cases for IC50 follow
{"COMPOUND": "CCCCC[C@H](CC(=O)NO)C(=O)N[C@H](C(=O)N1CCC[C@H]1CO)C(C)C", "IC50": "> 259 µM"}
{"COMPOUND": "Cc1cccc(C)c1N1C(=O)c2ccc(O)cc2C1=O", "IC50": "74.1 µM"}
{"COMPOUND": "CCc1cccc(CC)c1N1C(=O)c2ccc(O)cc2C1=O", "IC50": "43.3 µM"}
{"COMPOUND": "CC(C)c1ccc(N2C(=O)Cc3ccccc3C2=O)cc1", "IC50": "> 358 µM"}
{"COMPOUND": "CC(C)c1cccc(C(C)C)c1N1C(=O)c2cccc(O)c2C1=O", "IC50": "43.6 µM"}
{"COMPOUND": "CC(C)C[C@H](NC(=O)C(O)[C@H](N)Cc1ccccc1)C(=O)O (single isomer, unassigned)", "IC50": "> 324 µM"}
{"COMPOUND": "CC(C)c1cccc(C(C)C)c1N1C(=O)Cc2ccccc2C1=O", "IC50": "> 311 µM"}
{"COMPOUND": "CCc1ccccc1N1C(=O)Cc2ccccc2C1=O", "IC50": "> 377 µM"}

**Query** # query: IC50 | item O=C1Cc2ccccc2C(=O)N1c1c(Cl)cccc1Cl | system: Dipeptidyl peptidase 4 (Homo sapiens)
**Result** > 327 µM

----------
TEST SYSTEM: Aminopeptidase N (Homo sapiens)
Sequence (P15144 whole entry): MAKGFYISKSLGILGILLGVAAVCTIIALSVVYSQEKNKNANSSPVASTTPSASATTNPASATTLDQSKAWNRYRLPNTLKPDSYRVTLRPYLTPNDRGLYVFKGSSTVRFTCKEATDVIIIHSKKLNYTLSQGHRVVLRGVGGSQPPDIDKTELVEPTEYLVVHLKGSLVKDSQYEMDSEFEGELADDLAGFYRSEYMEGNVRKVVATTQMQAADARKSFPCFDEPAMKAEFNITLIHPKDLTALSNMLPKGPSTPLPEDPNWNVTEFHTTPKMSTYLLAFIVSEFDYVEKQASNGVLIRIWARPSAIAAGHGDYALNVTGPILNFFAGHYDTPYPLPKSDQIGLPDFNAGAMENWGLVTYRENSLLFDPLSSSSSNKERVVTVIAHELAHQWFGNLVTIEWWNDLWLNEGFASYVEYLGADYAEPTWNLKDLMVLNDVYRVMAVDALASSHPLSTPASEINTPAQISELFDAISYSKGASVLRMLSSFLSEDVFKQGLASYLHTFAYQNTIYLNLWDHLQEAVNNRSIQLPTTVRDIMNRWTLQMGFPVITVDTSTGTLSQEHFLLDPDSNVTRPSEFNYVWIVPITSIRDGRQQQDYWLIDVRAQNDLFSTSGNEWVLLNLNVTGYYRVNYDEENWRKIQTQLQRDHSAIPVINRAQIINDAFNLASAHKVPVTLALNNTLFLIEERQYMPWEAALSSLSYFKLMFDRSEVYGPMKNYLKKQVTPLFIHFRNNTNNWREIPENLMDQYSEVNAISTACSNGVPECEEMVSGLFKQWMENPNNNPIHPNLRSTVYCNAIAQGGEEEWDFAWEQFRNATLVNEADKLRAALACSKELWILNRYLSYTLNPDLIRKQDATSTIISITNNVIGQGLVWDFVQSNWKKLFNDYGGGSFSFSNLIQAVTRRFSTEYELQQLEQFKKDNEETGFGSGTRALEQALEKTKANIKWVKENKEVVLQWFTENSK
OBSERVED PROPERTY: IC50 (µM)

{"MOLECULE": "CCc1ccccc1N1C(=O)Cc2ccccc2C1=O", "IC50 / µM": 67.1}

a. CC(C)c1cccc(C(C)C)c1N1C(=O)c2cccc(N)c2C1=O
b. Cc1cccc(N2C(=O)Cc3ccccc3C2=O)c1C
c. CCCCC[C@H](CC(=O)NO)C(=O)N[C@H](C(=O)N1CCC[C@H]1CO)C(C)C [ACTINONIN]
d. Cc1ccc(N2C(=O)Cc3ccccc3C2=O)c(C)c1
e. CC(C)c1cccc(C(C)C)c1N1C(=O)Cc2ccccc2C1=O
**Query** Parameters: sort_field (IC50), sort_dir (desc). Submit the labels in the order that the ranking request calls for.
**Result** d, b, a, e, c
(d: 187 µM, b: 113 µM, a: 20.8 µM, e: 10.9 µM, c: 0.83 µM)

----------
TEST SYSTEM: Aminopeptidase N (Homo sapiens)
OBSERVED PROPERTY: IC50 (µM)

{"CPD SMILES": "CCc1cccc(CC)c1N1C(=O)c2ccccc2C1=O", "TEST SYSTEM": "Aminopeptidase N (Homo sapiens)", "U": "µM", "IC50": 303}

P. O=C1Cc2ccccc2C(=O)N1c1c(Cl)cccc1Cl
Q. Cc1cc(C)cc(N2C(=O)Cc3ccccc3C2=O)c1
**Query** Could you tell me which of these two has the smaller IC50 figure? First: P Second: Q Your choice should be expressed through its label.
**Result** Q
